From: ChEMBL document CHEMBL4476888

Target: D-3-phosphoglycerate dehydrogenase (Homo sapiens, UniProt O43175)
Sequence (O43175 whole entry): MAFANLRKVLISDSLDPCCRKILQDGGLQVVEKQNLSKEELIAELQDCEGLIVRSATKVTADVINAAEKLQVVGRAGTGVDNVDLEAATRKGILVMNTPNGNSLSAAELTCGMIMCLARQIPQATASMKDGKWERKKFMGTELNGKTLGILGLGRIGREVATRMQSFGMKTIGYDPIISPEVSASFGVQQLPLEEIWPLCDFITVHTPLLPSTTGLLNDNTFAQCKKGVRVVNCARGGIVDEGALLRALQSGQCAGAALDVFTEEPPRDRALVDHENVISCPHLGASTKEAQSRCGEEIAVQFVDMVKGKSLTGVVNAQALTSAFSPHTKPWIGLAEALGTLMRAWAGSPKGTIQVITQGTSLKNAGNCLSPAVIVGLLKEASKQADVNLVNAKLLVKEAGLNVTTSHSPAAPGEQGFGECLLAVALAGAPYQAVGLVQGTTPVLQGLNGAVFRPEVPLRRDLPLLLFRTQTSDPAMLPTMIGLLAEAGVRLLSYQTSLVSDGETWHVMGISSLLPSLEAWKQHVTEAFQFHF
Assay: Inhibition of N-terminal HIS-tagged and TEV cleavage site containing full length PHGDH (unknown origin) expressed in Escherichia coli assessed as reduction in conversion of 3-Phosphoglycerate and NAD to 3-Phosphohydroxypyruvate and NADH using 250 uM NAD and 500 uM 3-PG incubated for 240 mins by fluorescence based assay
Kindly supply the reported IC50 values for the records listed here.

The examples below pair each entry with its known result.
[[record]]
molecule = "Cc1cc2c(cc(C(=O)N[C@@H](C)c3ccc(S(=O)(=O)CC(=O)O)cc3)n2C)c(Cl)c1Cl"
result = "155 nM"

[[record]]
molecule = "Cc1cc(Cl)c2cc(C(=O)N[C@H](CO)c3ccc(S(=O)(=O)CC(=O)OCC4(F)COC4)cc3)n(C)c2c1"
result = "27 nM"

[[record]]
molecule = "COC(=O)CS(=O)(=O)c1ccc([C@@H](C)NC(=O)c2cc3c(Cl)cc(C)cc3n2C)nc1"
result = "1130 nM"

[[record]]
molecule = "Cc1cc(Cl)c2cc(C(=O)N[C@H](C)c3ccc(S(=O)(=O)CC(=O)OCCNC(=O)OC(C)(C)C)cc3)n(C)c2c1"
result = "701 nM"

[[record]]
molecule = "Cc1cc(Cl)c2cc(C(=O)N[C@H](C)c3ccc(S(=O)(=O)C(C)(C)C(=O)OC(C)(C)C)cc3)n(C)c2c1"
result = "5050 nM"


Task: Which IC50 value is on record for COCCOC(=O)CS(=O)(=O)c1ccc([C@@H](CO)NC(=O)c2cc3c(Cl)cc(C)cc3n2C)cc1 ?
Output: 62 nM
